target: T1, Human CD137 ECD (human); experiment: Biacore SPR, vs parent H183/L072
T1 construct: entry includes C-terminal His-tag and biotin acceptor peptide; also called human CD137 extracellular domain; 4-1BB
T1 sequence (chain, as listed by the source limits assumed): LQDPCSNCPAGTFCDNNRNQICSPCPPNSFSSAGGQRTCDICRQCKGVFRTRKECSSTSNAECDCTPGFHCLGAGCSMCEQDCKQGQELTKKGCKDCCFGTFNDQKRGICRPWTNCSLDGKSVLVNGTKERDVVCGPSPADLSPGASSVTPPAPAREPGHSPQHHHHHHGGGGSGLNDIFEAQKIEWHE
fold change of affinity reference
Report only the number, with the unit fold understood.

{"columns": ["binder", "fold change of affinity [fold]"],
 "data": [
  ["H183/L072 VL Q27I (antibody, name in Kabat numbering, V domains shown, Dual-Ig) VH: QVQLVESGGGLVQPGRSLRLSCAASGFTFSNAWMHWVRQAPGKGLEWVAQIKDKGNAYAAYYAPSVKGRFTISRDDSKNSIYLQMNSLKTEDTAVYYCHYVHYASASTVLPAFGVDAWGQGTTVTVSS VL: DIVMTQSPLSLPVTPGEPASISCQASIELVHMNRNTYLHWYQQKPGQAPRLLIYKVSNRFPGVPDRFSGSGSGTDFTLKISRVEAEDVGVYYCAQGTSVPFTFGQGTKLEIK", 0.7],
  ["H183/L072 VL V51N (antibody, name in Kabat numbering, V domains shown, Dual-Ig) VH: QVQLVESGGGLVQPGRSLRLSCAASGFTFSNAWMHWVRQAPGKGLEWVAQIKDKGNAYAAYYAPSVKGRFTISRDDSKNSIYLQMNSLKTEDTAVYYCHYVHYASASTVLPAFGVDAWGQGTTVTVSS VL: DIVMTQSPLSLPVTPGEPASISCQASQELVHMNRNTYLHWYQQKPGQAPRLLIYKNSNRFPGVPDRFSGSGSGTDFTLKISRVEAEDVGVYYCAQGTSVPFTFGQGTKLEIK", 0.3]
]}

Below: the item to evaluate.
QUERY: Fill in: fold change of affinity of H183/L072 VL Q90M (antibody, name in Kabat numbering, V domains shown, Dual-Ig) VH: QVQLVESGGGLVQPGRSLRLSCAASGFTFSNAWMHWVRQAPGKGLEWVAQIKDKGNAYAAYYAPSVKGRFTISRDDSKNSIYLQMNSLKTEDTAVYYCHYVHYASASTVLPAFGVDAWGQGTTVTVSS VL: DIVMTQSPLSLPVTPGEPASISCQASQELVHMNRNTYLHWYQQKPGQAPRLLIYKVSNRFPGVPDRFSGSGSGTDFTLKISRVEAEDVGVYYCAMGTSVPFTFGQGTKLEIK is ___
RESULT: 0

Data origin: patent US20210388087A1
